- Tested on: Proteus vulgaris X 19H ATCC 881
- assay_summary: In vitro antibacterial activity, standard agar-dilution test (MIC)
- Assay type: cell-based
- condition_details: inoculum about 10^4 CFU/ml, 18-24 h at 37° C.
measured_metric: MIC Proteus vulgaris X 19H ATCC 881 (µg/mL)

molecule="CC(=O)NC1C(OC2c3ccc(c(Cl)c3)Oc3cc4cc(c3O)Oc3ccc(cc3Cl)CC3NC(=O)C(N)c5ccc(O)c(c5)Oc5cc(O)cc(c5)C(NC3=O)C(=O)NC4C(=O)NC3C(=O)NC2C(=O)NC(C(=O)NCCN2CCOCC2)c2cc(O)cc(O)c2-c2cc3ccc2O)OC(CO)C(O)C1O (stereo not shown)" measured_metric="MIC Proteus vulgaris X 19H ATCC 881" bound_sign=> result_number=128
molecule="Cl.Cl.NC1C(=O)NC2Cc3ccc(c(Cl)c3)Oc3cc4cc(c3O)Oc3ccc(cc3Cl)C(O)C3NC(=O)C(NC(=O)C4NC(=O)C(NC2=O)c2cc(O)cc(c2)Oc2cc1ccc2O)c1ccc(O)c(c1)-c1c(O)cc(O)cc1C(C(=O)NC1CN2CCC1CC2)NC3=O (stereo not shown)" measured_metric="MIC Proteus vulgaris X 19H ATCC 881" bound_sign== result_number=64
molecule="NC1C(=O)NC2Cc3ccc(c(Cl)c3)Oc3cc4cc(c3O)Oc3ccc(cc3Cl)C(O)C3NC(=O)C(NC(=O)C4NC(=O)C(NC2=O)c2cc(O)cc(c2)Oc2cc1ccc2O)c1ccc(O)c(c1)-c1c(O)cc(O)cc1C(C(=O)NCCN1CCCC1)NC3=O (stereo not shown)" measured_metric="MIC Proteus vulgaris X 19H ATCC 881" bound_sign== result_number=64
molecule="COC(=O)C(CCCCN)NC(=O)C1NC(=O)C2NC(=O)C(NC(=O)C3NC(=O)C4NC(=O)C(Cc5ccc(c(Cl)c5)Oc5cc3cc(c5O)Oc3ccc(cc3Cl)C2O)NC(=O)C(N)c2ccc(O)c(c2)Oc2cc(O)cc4c2)c2ccc(O)c(c2)-c2c(O)cc(O)cc21.Cl.Cl (stereo not shown)" measured_metric="MIC Proteus vulgaris X 19H ATCC 881" bound_sign== result_number=32
molecule="CC(=O)NC1C(OC2c3ccc(c(Cl)c3)Oc3cc4cc(c3O)Oc3ccc(cc3Cl)CC3NC(=O)C(N)c5ccc(O)c(c5)Oc5cc(O)cc(c5)C(NC3=O)C(=O)NC4C(=O)NC3C(=O)NC2C(=O)NC(C(=O)NCCCN(C)C)c2cc(O)cc(O)c2-c2cc3ccc2O)OC(CO)C(O)C1O (stereo not shown)" measured_metric="MIC Proteus vulgaris X 19H ATCC 881" bound_sign=> result_number=128
molecule="NC1C(=O)NC2Cc3ccc(c(Cl)c3)Oc3cc4cc(c3O)Oc3ccc(cc3Cl)C(O)C3NC(=O)C(NC(=O)C4NC(=O)C(NC2=O)c2cc(O)cc(c2)Oc2cc1ccc2O)c1ccc(O)c(c1)-c1c(O)cc(O)cc1C(C(=O)NCCN1CCOCC1)NC3=O (stereo not shown)" measured_metric="MIC Proteus vulgaris X 19H ATCC 881" bound_sign== result_number=128
molecule="NCCCCC(NC(=O)C1NC(=O)C2NC(=O)C(NC(=O)C3NC(=O)C4NC(=O)C(Cc5ccc(c(Cl)c5)Oc5cc3cc(c5O)Oc3ccc(cc3Cl)C2O)NC(=O)C(N)c2ccc(O)c(c2)Oc2cc(O)cc4c2)c2ccc(O)c(c2)-c2c(O)cc(O)cc21)C(=O)O (stereo not shown)" measured_metric="MIC Proteus vulgaris X 19H ATCC 881" bound_sign=> result_number=128
